reported-conditions: in acetone, 288.2 K
parameter-measured: solubility (mole fraction)

CC[C@H](C)C(=O)O[C@H]1C[C@@H](C)C=C2C=C[C@H](C)[C@H](CC[C@@H]3C[C@@H](O)CC(=O)O3)[C@H]21 ... 0.00869

====

reported-conditions: in acetone, 318.15 K
parameter-measured: solubility (mole fraction)

CC[C@H](C)C(=O)O[C@H]1C[C@@H](C)C=C2C=C[C@H](C)[C@H](CC[C@@H]3C[C@@H](O)CC(=O)O3)[C@H]21 ... 0.0272

====

reported-conditions: in acetone, 313.25 K
parameter-measured: solubility (mole fraction)

CC[C@H](C)C(=O)O[C@H]1C[C@@H](C)C=C2C=C[C@H](C)[C@H](CC[C@@H]3C[C@@H](O)CC(=O)O3)[C@H]21 ... 0.0226
